Tested on: SF-539 CNS
assay info: NCI tumour cell line growth inhibition, 48 h
This listing pairs compounds with measured TGI.
observed property: TGI (µM)

compound	observed property	rel	value measured
C[Si](C)(C)/C(I)=C/CO	TGI	=	39.9
C[C@]12CCC(=O)C=C1CC[C@@H]1C2CC[C@]2(C)Nc3[nH]ncc3CC12 (stereo partly drawn)	TGI	>	100
Cc1cc(N(CCCNc2ccnc3cc(Cl)ccc23)Cc2ccc3c(c2)OCO3)nc(N2CCOCC2)n1	TGI	=	0.66
COc1cc(/C=C\c2cc(OC)c(OC)c(OC)c2)cc(N/C=C\C(=O)c2cc(OC)c(OC)c(OC)c2)c1OC	TGI	=	4.51
COc1ccc(-c2nnc(N3CCN(C(=O)CN4CCN(c5ccccc5)CC4)CC3)nc2-c2ccc(OC)cc2)cc1	TGI	=	35.3
Cc1nc2cc(Nc3nc(Nc4ccc(F)cc4)nc(-c4cccs4)n3)ccc2n1Cc1ccccc1	TGI	=	12.9
COc1cc(/C=C/C(=O)Oc2ccc(NC(C)=O)cc2)ccc1C(=O)O/C=C/c1ccccc1	TGI	>	100
O=C(Nc1ccc(Cl)c(C(F)(F)F)c1)c1ccc(NC2=C(Cl)C(=O)N(Cc3ccccc3)C2=O)cc1	TGI	=	23.9

* * *

System: SF-268 CNS
assay info: NCI tumour cell line growth inhibition, 48 h
This listing pairs compounds with measured TGI.
observed property: TGI (µM)

compound	observed property	rel	value measured
O=C(Nc1ccc(Cl)c(C(F)(F)F)c1)c1ccc(NC2=C(Cl)C(=O)N(Cc3ccccc3)C2=O)cc1	TGI	=	9.02
O=C(NNC(=O)c1ccccc1O)c1cccc(Br)c1	TGI	>	100
COc1ccc(-c2cc3ccccc3oc2=O)cc1OC	TGI	>	100
Cc1ccc2c(C3C(C#N)=C(N)Oc4cc5ccccc5cc43)cc(=O)oc2c1 (stereo not given)	TGI	>	100
COc1cc(/C=C/C(=O)c2cccc(-n3cc(-c4ccc(Cl)cc4)[nH]c3=O)c2)ccc1O	TGI	=	12.6

* * *

System: M14 melanoma
assay info: NCI tumour cell line growth inhibition, 48 h; in the data active = GI50 below about 0.43 µM; inactive = the rest
Labels: 1 (yes) (active), 0 (no) (inactive)

molecular string	discrete label
COC(=O)c1ccc(-c2c(C#N)[n+](=O)c3cc(Cl)c(Cl)cc3n2[O-])cc1	0 (no)
COc1ccc(/C(=C\C=C(C#N)C#N)Sc2nc3ccccc3s2)cc1	0 (no)
Cn1c(=O)c(Oc2ccc(F)cc2)cc2cnc(NC3CCOCC3)nc21	0 (no)
COC(=O)C1=CN(CC2=CC(=O)C(C)=CC2=O)C=C(C(=O)OC)C1c1cccc(OC)c1	0 (no)
NCCCn1c2c(c3ccc([N+](=O)[O-])cc3c1=O)C(=O)c1ccccc1-2	1 (yes)

* * *

This listing pairs compounds with measured TGI.
Test system: M14 melanoma
assay info: NCI tumour cell line growth inhibition, 48 h

compound	TGI
CC(=O)NNc1nc(-c2ccc([N+](=O)[O-])cc2)c(C#N)c(=O)n1C	> 100 µM
CC(C(=O)O)c1cccc(Oc2ccccc2)c1 (stereo unspecified)	> 100 µM
CN1CC[C@@H](c2c(O)cc(O)c3c(=O)cc(-c4ccc(C(F)(F)F)cc4Cl)oc23)[C@@H]1CO	33.8 µM
C[N+](C)(C)CC1CCC/C1=N\OC(=O)c1ccccc1 (stereo unspecified)	> 100 µM
C=C(Nc1nc2ccc(C)cc2s1)C(=O)C(CC)C(=O)C(CC)CC1C(=O)NC(=O)NC1=O (stereo unspecified)	> 100 µM
C[C@]12CCC(=O)C=C1CC[C@@H]1C2CC[C@]2(C)Nc3[nH]ncc3CC12 (stereo partly specified)	> 100 µM
CSc1nc(NC2OC(COC(C)=O)C(OC(C)=O)C(OC(C)=O)C2OC(C)=O)c(N=CC=Nc2c(NC3OC(COC(C)=O)C(OC(C)=O)C(OC(C)=O)C3OC(C)=O)nc(SC)n(C)c2=O)c(=O)n1C (stereo unspecified)	> 50 µM
O=C(Nc1ccc(Cl)c(C(F)(F)F)c1)c1ccc(NC2=C(Cl)C(=O)N(Cc3ccccc3)C2=O)cc1	41.6 µM
CCCOC(=O)CNC(=O)OC(C)(C)C	> 100 µM
CN(C)/N=C1/CCC(C(F)(F)F)(C(F)(F)F)O1	68.1 µM
CC1C=CN(N(C)C)C2=C1C(=O)c1cnccc1C2=O (stereo unspecified)	1.62 µM
CCOC(=O)Cc1ccc(Nc2nc3ccccc3nc2C(=O)OCC)cc1	> 100 µM
O=c1c2ncn(C3CCCO3)c2n(-c2ccccc2)c(=S)n1-c1ccccc1 (stereo unspecified)	> 100 µM
COc1ccc(-c2cc3ccccc3oc2=O)cc1OC	> 100 µM
Cc1cccc2c1Sc1ccccc1C2NC(=O)CCN(C)C (stereo unspecified)	> 100 µM
CC(C)(C)OC/C=C(/CO)[C@@H]1C=C[C@H](O)C1	> 100 µM
O=C(Nc1cc(C(F)(F)F)ccc1Cl)c1cccc(NC2=C(Cl)C(=O)N(Cc3ccccc3)C2=O)c1	> 100 µM
C=CN1C(=O)[C@H](Oc2ccccc2)[C@@H]1c1ccccc1	> 100 µM
COC1(OC)CCCc2c1no[n+]2[O-]	> 100 µM
COc1ccc(-c2nsc3c2NC(=O)CC3c2cccc(OC)c2)cc1 (stereo unspecified)	> 100 µM
CC(C)=CCc1cc(O)cc2c1OC(C=C(C)C)C1=C2C(=O)C2=C(C1=O)S(=O)(=O)CCN2 (stereo unspecified)	5.59 µM

* * *

This listing pairs molecules with measured TGI.
Tested on: HT29 colon
assay info: NCI tumour cell line growth inhibition, 48 h

molecule	TGI
CS(=O)(=O)c1ccc(-c2cc(-c3ccc(S(C)(=O)=O)cc3)[n+](-c3cc(-c4ccccc4)c([O-])c(-c4ccccc4)c3)c(-c3ccc(S(C)(=O)=O)cc3)c2)cc1	> 100 µM
CC(Oc1ccc(Cl)cc1Cl)C(=O)NN1C(=O)CSC1c1ccccc1 (stereo not given)	> 100 µM
Nc1n[nH]c(=O)c2c1c(I)cn2C1OC(CO)C(O)C1O (stereo not given)	67.8 µM
C=C1CC/C=C(\C)CCC[C@H](C)[C@@H](O)[C@@H]2OC(=O)C(=C)[C@@H]2C[C@H]1O	15.2 µM
O=C(Cn1c(-c2ccccc2)cc2ccccc21)N1CCCC1	> 100 µM
C=C(C)C1CCC2(C)CC1c1c(c(C)cc3c1[nH]c1ccccc13)O2 (stereo not given)	> 25 µM
CCOC(=O)/C=C(/C(=O)OCC)n1cnc2c(=O)[nH]c(NC(C)=O)nc21	> 100 µM
Clc1nc(Cl)nc(Nc2cccc3ccccc23)n1	> 100 µM
CN(C)CCC(=O)C(=Cc1ccc(O)cc1)C(=O)CCN(C)C	> 100 µM
CC(C)=CC1CC(=[N+]=[N-])C(=O)C1(C)C (stereo not given)	> 31.6 µM

* * *

Test system: SK-OV-3 ovarian
assay info: NCI tumour cell line growth inhibition, 48 h
This listing pairs compounds with measured TGI.

compound	tested on	TGI
CC(C)=CCc1cc(O)cc2c1OC(C=C(C)C)C1=C2C(=O)C2=C(C1=O)S(=O)(=O)CCN2 (stereo not drawn)	SK-OV-3 ovarian	> 16.7 µM
CCOC(=O)c1c2c(n(Cc3ccccc3)c1C)C(=O)C(=O)c1ccccc1-2	SK-OV-3 ovarian	5.76 µM
COC1CCCCN1C(=O)c1ccccc1 (stereo not drawn)	SK-OV-3 ovarian	> 25.3 µM
Cc1cc(/N=C/c2ccc(F)cc2)n(-c2ccccc2)n1	SK-OV-3 ovarian	> 100 µM
COc1ccc2c(C(=O)c3cn(CCN4CCOCC4)c4ccccc34)cccc2c1	SK-OV-3 ovarian	> 100 µM
O=c1oc2c/c(=C\c3ccc([N+](=O)[O-])cc3)c(=O)c3cccc1c3-2	SK-OV-3 ovarian	> 100 µM
CC(C)(C)[Si](C)(C)Oc1ccc(C2CNC(=O)C23CCC(=O)N3Cc2ccccc2)cc1 (stereo not drawn)	SK-OV-3 ovarian	29 µM
CC(C)(C)[Si](C)(C)OC1C(=O)C[C@H]2CCCC[C@@H]12 (stereo partly drawn)	SK-OV-3 ovarian	> 100 µM
CC(=O)N1CCC(=O)/C(=C/c2ccccc2)C1	SK-OV-3 ovarian	> 100 µM
CC1(Br)Cc2ccccc2C1=O (stereo not drawn)	SK-OV-3 ovarian	65.9 µM
CC(C)=CCC/C(C)=C/CC/C(C)=C/CC(CO)N(C)CC/C=C(\C)CCC=C(C)C (stereo not drawn)	SK-OV-3 ovarian	28.9 µM
NCCc1cc(O)c(O)cc1O	SK-OV-3 ovarian	> 84.1 µM
Cc1nc2ccc(F)cc2c2c1CCN2c1ccc(Cl)cc1	SK-OV-3 ovarian	> 100 µM

* * *

Tested on: MDA-MB-231 breast
assay info: NCI tumour cell line growth inhibition, 48 h

compound	tested on	GI50
Cc1ccc(Nc2oc(-c3ccccc3)nc2[P+](c2ccccc2)(c2ccccc2)c2ccccc2)cc1	MDA-MB-231 breast	0.788 µM
Nc1c(C(=O)c2ccccc2)cnn1-c1ccc(F)cc1	MDA-MB-231 breast	> 25 µM
O=[N+]([O-])c1ccc(CI)cc1	MDA-MB-231 breast	1.23 µM
COc1ccc(/C(=C\C=C(C#N)C#N)Sc2nc3ccccc3s2)cc1	MDA-MB-231 breast	6.71 µM
BrCc1cccc(C[P+](c2ccccc2)(c2ccccc2)c2ccccc2)c1	MDA-MB-231 breast	33 µM
CC(C)OC(=O)[C@H](C)NP(=O)(OC[C@H]1O[C@@H](n2ccc(=O)[nH]c2=O)[C@](C)(F)[C@@H]1O)Oc1ccccc1 (stereo partly specified)	MDA-MB-231 breast	> 100 µM

Values from PubChem BioAssay (NCI)
